Sourced from paper PMC5045296

Reported Kd is given for each of the following binders.
target: tubulin (alpha/beta heterodimer), polymerised into microtubules or as free tubulin-dimers (porcine) (UniProt P02550); assay: co-sedimentation; KIF19A protein (printed 'Two micromoles') with 0-40 μM taxol-stabilized MTs in PEM buffer, 25°C, 15 min, AMP-PNP; 38,000 xg 10 min; SDS-PAGE band intensities; one site binding model
State the answer as a number, implicitly in nM.

Task: // lookup Kd for KIF19A-353 K2A (K290 and K294 replaced with alanine) (domain or fragment) MKDSGDSKDQQLMVALRVRPISVAELEEGATLIAHKMDEQMVVLMDPMEDPDDILRAHRSREKSYLFDVAFDFTATQEMVYQATTKSLIEGVISGYNATVFAYGPTGCGKTYTMLGTDHEPGIYVRTLNDLFRAIEETSNDMEYEVSMSYLEIYNEMIRDLLNPALGYLELREDSKGVIQVAGITEVSTINAKEIMQLLMKGNRQRTQEPTAANQTSSRSHAVLQVAVRQRSRVKNILQEVRQGRLFMIDLAGSERASQTQNRGQRMKEGAHINRSLLALGNCINALSDAGSNAYINYRDSKLTRLLKDSLGGNSRTVMIAHISPASTAFEESRNTLTYAGRAKNIRTRVKQN
Output: 3000

Task: // lookup Kd for KIF19A-353 L55A (domain or fragment) MKDSGDSKDQQLMVALRVRPISVAELEEGATLIAHKMDEQMVVLMDPMEDPDDIARAHRSREKSYLFDVAFDFTATQEMVYQATTKSLIEGVISGYNATVFAYGPTGCGKTYTMLGTDHEPGIYVRTLNDLFRAIEETSNDMEYEVSMSYLEIYNEMIRDLLNPALGYLELREDSKGVIQVAGITEVSTINAKEIMQLLMKGNRQRTQEPTAANQTSSRSHAVLQVAVRQRSRVKNILQEVRQGRLFMIDLAGSERASQTQNRGQRMKEGAHINRSLLALGNCINALSDKGSNKYINYRDSKLTRLLKDSLGGNSRTVMIAHISPASTAFEESRNTLTYAGRAKNIRTRVKQN
Output: 1600
